Each recorded value in this set is attributed to patent EP0123485A1.

METHOD_DESCRIPTION: Rate of hydrolysis in homogenized cecal contents
STUDY_CONDITIONS: cecal contents; 1.0 mM prodrug, 37 C; release of free steroid by HPLC
Cut-off 6 µmol/min on Tot. act., inclusive. At or above means 1 (yes); below means 0 (no).

>>> assigned_class("CC12C=CC(=O)C=C1CCC1C2C(O)CC2(C)C1CCC2(O)C(=O)COC1OC(CO)C(OC2OC(CO)C(O)C(O)C2O)C(O)C1O (centres unmarked)")
"0 (no)"
>>> assigned_class("CC12CCC(=O)C=C1CCC1C3CCC(O)(C(=O)COC4OC(CO)C(O)C(O)C4O)C3(C)CC(O)C12F (centres unmarked) [Compound 12]")
"1 (yes)"
>>> assigned_class("CC1CC2C3CCC4=CC(=O)C=CC4(C)C3(F)C(O)CC2(C)C1(O)C(=O)COC1OC(CO)C(O)C(O)C1O (centres unmarked) [Compound 1]")
"0 (no)"
>>> assigned_class("CC12C=CC(=O)C=C1CCC1C2C(O)CC2(C)C1CCC2(O)C(=O)COC1OC(CO)C(O)C(O)C1O (centres unmarked) [Compound 10]")
"1 (yes)"
>>> assigned_class("CC1CC2C3CCC4=CC(=O)C=CC4(C)C3(F)C(O)CC2(C)C1(O)C(=O)COC1OC(CO)C(O)C(O)C1O (centres unmarked) [Compound 9]")
"1 (yes)"
